Target: T1, EsCas13d, nuclease-dead (Eubacterium siraeum, UniProt B0MS50, R295A;H300A;R849A;H854A)
T1 sequence: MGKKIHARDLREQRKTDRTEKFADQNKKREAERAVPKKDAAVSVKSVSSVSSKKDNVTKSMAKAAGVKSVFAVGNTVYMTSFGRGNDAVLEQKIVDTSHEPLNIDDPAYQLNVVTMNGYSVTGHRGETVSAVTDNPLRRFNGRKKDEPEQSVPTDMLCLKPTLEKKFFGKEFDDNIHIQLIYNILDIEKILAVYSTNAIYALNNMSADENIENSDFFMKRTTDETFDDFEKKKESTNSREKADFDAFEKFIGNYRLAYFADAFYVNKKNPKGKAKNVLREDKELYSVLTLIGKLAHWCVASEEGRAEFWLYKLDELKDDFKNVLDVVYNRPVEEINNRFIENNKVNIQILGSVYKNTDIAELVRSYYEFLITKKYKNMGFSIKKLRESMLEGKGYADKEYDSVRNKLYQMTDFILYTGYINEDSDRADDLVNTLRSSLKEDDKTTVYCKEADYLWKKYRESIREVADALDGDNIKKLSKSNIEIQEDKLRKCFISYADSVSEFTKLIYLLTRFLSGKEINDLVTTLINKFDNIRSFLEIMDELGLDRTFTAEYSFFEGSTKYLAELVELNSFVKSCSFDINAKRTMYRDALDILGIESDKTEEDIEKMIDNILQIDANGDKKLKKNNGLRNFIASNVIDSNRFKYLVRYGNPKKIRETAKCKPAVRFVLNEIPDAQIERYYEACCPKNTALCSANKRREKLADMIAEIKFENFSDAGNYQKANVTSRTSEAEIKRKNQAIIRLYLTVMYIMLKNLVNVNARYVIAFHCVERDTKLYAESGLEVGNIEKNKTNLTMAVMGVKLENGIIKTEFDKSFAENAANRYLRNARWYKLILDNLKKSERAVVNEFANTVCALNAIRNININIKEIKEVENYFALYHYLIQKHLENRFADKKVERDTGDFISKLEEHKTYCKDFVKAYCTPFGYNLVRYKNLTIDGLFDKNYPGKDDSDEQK
Assay: crRNA (strand 1, pre-loaded); Mg2+; 40 mM Tris-HCl pH 7.5, 150 mM NaCl, 6 mM MgCl2, 1 mM DTT, 0.1% Tween-20, 0.2 mg/ml BSA; 25 C; 10 min per concentration, then washed
Conditions: tags: His6-TwinStrep-SUMO cleaved; N-terminal SNAP kept (SNAP-Surface 488); label: 3' end held by stalled T7 RNA polymerase
quantityName: pKd
Units for pKd: none; it is -log10 of a concentration expressed in mol/L.

Prompt: Entry target 2 MT 5'PFS GCC 3'PFS UAA (mixed) RNA 1: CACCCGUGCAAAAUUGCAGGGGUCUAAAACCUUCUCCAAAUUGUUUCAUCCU RNA 2: GGGAAUGGAUCCACAUCUACGAAUUCGCCAGGAUGAAACAAUUUGGAGAAGUAAAGAUCGGAAGAGCACACGU : reported pKd = ?
Completion: 7.96

Prompt: Entry target 1 MT 5'PFS GUG 3'PFS CCG (mixed) RNA 1: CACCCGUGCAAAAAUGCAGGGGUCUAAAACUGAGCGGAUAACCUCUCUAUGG RNA 2: GGGAAUGGAUCCACAUCUACGAAUUCGUGCCAUAGAGAGGUUAUCCGCUCACCGAGAUCGGAAGAGCACACGU : reported pKd = ?
Completion: 7.93
